Each recorded value in this set is attributed to paper PMC6891749.

TARGET OR SYSTEM: CDK1
ASSAY PROTOCOL: Protein kinase assay, radiometric
Type: biochemical
TEST PARAMETERS: dose response curves, triplicates
Documented pIC50 across a set of compounds
# pIC50 is unitless: minus log10 of the molar concentration; print number only

### Prompt What measured pIC50 goes with `O=C1NCCc2[nH]c3c(Cl)cccc3c21` ?
### Response 5.92

Would you kindly look at the next entry?
### Prompt What measured pIC50 goes with `O=C1NCCCc2[nH]c3c(Cl)cccc3c21` ?
### Response 5.15

----------
ASSAY PROTOCOL: Kinetic solubility, laser nephelometry
Format: physicochemical
TEST PARAMETERS: aqueous phosphate buffer, aqueous buffer, kinetic from dmso stock; phosphate buffer pH 7.4, nephelometry; mean value and range; read-out: Sexp., kin., pH 7.4 (kinetic solubility)
Documented solubility kinetic across a set of molecules

### Prompt What measured solubility kinetic goes with O=c1ccccc2[nH]c3c(Cl)cccc3c12 [compound 11, 4-Chlorocyclohepta[b]indol-10(5H)-one] ?
### Response 26.1 µM

### Prompt What measured solubility kinetic goes with O=C(O)c1nc2ccccc2c2[nH]c3c(I)cccc3c12 [compound 10, reference compound] ?
### Response 5.28 µM

### Prompt What measured solubility kinetic goes with O=C1c2c([nH]c3c(Cl)cccc23)CCC1CN1CCCCC1 (racemic) ?
### Response 2310 µM
